B1: BRF1 (parent)
chain: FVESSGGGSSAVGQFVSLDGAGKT

Variants of: B1
Experiment: protein stability index of a GFP-peptide fusion (GPS, HEK-293T) (PSI 1-6); higher = more stable;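 also: lentivirally expressed fusions sorted by FACS into six bins by GFP to DsRed ratio, PSI derived from sequencing read proportions per bin multiplied by bin number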
Settings: c terminus: a fixed tail appended
Listed here: items and their measured protein stability index.
Readout Kind: protein stability index

1) A11G ... 2.28
2) G22V ... 2.29
3) S4R ... 2.42
4) V2K ... 4.25
5) V2H ... 3.87
6) G7V ... 1.61
7) G8M ... 1.71
8) S17F ... 1.72
9) A11H ... 1.9
10) T24D ... 2.72
11) F15D ... 4.4
12) G8Y ... 2.46
13) A21N ... 2.56
14) F1D ... 5.32
15) S4C ... 3.2
16) S5F ... 3
17) L18A ... 2.5
18) S9G ... 2.36
19) S4Y ... 1.3
20) A21T ... 2.54
21) D19Q ... 1.98
22) G13T ... 2.3
23) S5N ... 2.65
24) D19T ... 1.59
25) S10M ... 1.46
26) G22N ... 2.39
27) G8T ... 2.52
28) K23M ... 2.16
29) L18Q ... 2.88
30) K23Y ... 2.05
31) G7F ... 2.93
32) G20F ... 2.6
33) V16I ... 2.18
34) S5D ... 3.37
35) G7A ... 2.86
36) K23H ... 2.24
37) S4F ... 2.01
38) S10I ... 1.37
39) F15T ... 2.96
40) G13K ... 2.06
41) G22Y ... 1.9
42) L18F ... 1.83
43) A11M ... 1.63
44) V12L ... 1.95
45) F1Y ... 2.75
46) Q14D ... 2.73

These measurements were taken from the supplement of paper PMC10567573.
